Data origin: the DeepSol protein solubility set

Protocol notes: soluble on expression in E. coli; label from the status in PepcDB or PDB records
Reported metric: soluble on expression in E. coli

Consider the worked cases shown below.
[
  {
    "Biopolymer sequence": "PTAGADTIEYCVTHSESKALIGGKLDDPAATQQVIDAMPELISIALPYDSAPQCQYQFNALIADAVPSEERPQHYDDKLMSLVYTSGTSGLPKGAMLTYGAFSWSVQQLINHIGIQANDRLFSYLPLAHITER",
    "soluble on expression in E. coli": "not soluble"
  },
  {
    "Biopolymer sequence": "MLVPSANRWVPKFKSKKTEKKLAPDGKTELLDKDEVERKMKSLLNKLTLEMFDAISSEILAIANISVWETNGETLKAVIEQIFLKACDEPHWSSMYAQLCGKVVKELNPDITDETNEGKTGPKLVLHYLVARCHAEFDKGWTDKLPTNEDGTPLEPEMMSEEYYAAASAKRRGLGLVRFIGFLYRLNLLTGKMMFECFRRLMKDLTDSPSEETLESVVELLNTVGEQFETDSFRTGQATLEGSQLLDSLFGILDNIIQTAKISSRIKFKLIDIKELRHDKNWNS",
    "soluble on expression in E. coli": "soluble"
  },
  {
    "Biopolymer sequence": "MTKFVAKKAILLLSLLLLGTAESKPLDAEQQHIDDQHVRKERQLKMAGSADPDVKMVANVTPATGSQPMSMTMGVPMNQMALSSVGGQLVRYPNYPGLIYPGLAPAPGLNGVPGLQTNIANNYPSYPDPNLTGSVPGFNPFGSFGYPGVAPMYGNSLMYPNPQLPNGFVPNPAVDNFQSLNNIVNMANVQGLAGGSSGIYPAPQGFGGVSPGLYPAPQGFGGANPGLYPAPQVNMQGLYPPSGGFLERMNMQGYAPGFLEHHHHHH",
    "soluble on expression in E. coli": "not soluble"
  },
  {
    "Biopolymer sequence": "MAHHHHHHMLTSENPAERAGQAGQAIRPPPSPVPDGTRPSDSSRGDSSVSPLSTTGISSSSALDAPIVQSTQPSEKGLRSETISLGTALPNEQPKERSESKAKQGSSTSEEVAESPDDSGDAVEKEKKGDVGPKATTSLSSTTSNPPVTQTTPRASSAEPPPTETELQTGEETSTENVTITKRNNTTTPGDSDGSTAVSHTTSPLLLLLVVVECAAAAAVVAA",
    "soluble on expression in E. coli": "soluble"
  },
  {
    "Biopolymer sequence": "EVQLQQSGPELVKPGTSVKMSCKASGYTFTDYYMKWVKHSHGKSLEWIGDINPSNGGTLYNQKFKGKATLTVDKSSSTASMQLSRLTSEDSAVYYCSRGDGIHGGFAYWGQGTTVTVSSAKTTAPSVYPLAPVCGDTTGSSVTLGCLVKGYFPEPVTLTWNSGSLSSGVHTFPAVLQSDLYTLSSSVTVTSSTWPSQSITCNVAHPASSTKVDKKIVPQV",
    "soluble on expression in E. coli": "soluble"
  }
]

Input line: Quick check: soluble on expression in E. coli of MRLLLFRQRNFRNLALEAYRPPPGLSALVGANAQGKTSLLLGIHLALGGEVPLGLADLVRFGEEEAWLHAEVETELGAYRLEHRLGPGGREVLLNGKRVSLRTLWELPGSVLVSPLDLEAVLGPKEERRAYLDRLIARFSRRYAALLSAYEKALRQRNALLKAGGEGLSAWDRELARYGDEIVALRRRFLRRFAPILREVHAALAAKEAGLRLEETAGEGVLRALEASRAEERERGQTLVGPHRDDLVFLLEGRPAHRFASRGEAKTLALALRLAEHRLLGEHHGEPPLLLVDEWGEELDEARRRAVLAYAQALPQAILAGLEAPPGVPVCSVVRGVVLCPGA ?
Output line: soluble

Input line: Fill in: soluble on expression in E. coli of MSLRQIRTVIQYQTVRYDILPLSPVSRNRLAQVKRKILVLDLDETLIHSHHDGVLRPTVRPGTPPDFILKVVIDKHPVRFFVHKRPHVDFFLEVVSQWYELVVFTASMEIYGSAVADKLDNSRSILKRRYYRQHCTLELGSYIKDLSVVHSDLSSIVILDNSPGAYRSHPDNAIPIKSWFSDPSDTALLNLLPMLDALRFTADVRSVLSRNLHQHRLWEGHHHHHH is ___
Output line: not soluble

Input line: I'd like to know its soluble on expression in E. coli. The sequence in question is SNAEKAVLIGEKEADITFVTWGSQKGPILDVIEDLKEEGISANLLYLKMFSPFPTEFVKNVLSSANLVIDVESNYTAQAAQMIKLYTGIDIKNKILKYNGRHMTEDEILKSAKEILNK
Output line: soluble
